pIC50: −log10 of the molar value.
Measured pIC50 on Cytochrome P450 1A1 (Homo sapiens) follows.
Sequence (P04798 whole entry): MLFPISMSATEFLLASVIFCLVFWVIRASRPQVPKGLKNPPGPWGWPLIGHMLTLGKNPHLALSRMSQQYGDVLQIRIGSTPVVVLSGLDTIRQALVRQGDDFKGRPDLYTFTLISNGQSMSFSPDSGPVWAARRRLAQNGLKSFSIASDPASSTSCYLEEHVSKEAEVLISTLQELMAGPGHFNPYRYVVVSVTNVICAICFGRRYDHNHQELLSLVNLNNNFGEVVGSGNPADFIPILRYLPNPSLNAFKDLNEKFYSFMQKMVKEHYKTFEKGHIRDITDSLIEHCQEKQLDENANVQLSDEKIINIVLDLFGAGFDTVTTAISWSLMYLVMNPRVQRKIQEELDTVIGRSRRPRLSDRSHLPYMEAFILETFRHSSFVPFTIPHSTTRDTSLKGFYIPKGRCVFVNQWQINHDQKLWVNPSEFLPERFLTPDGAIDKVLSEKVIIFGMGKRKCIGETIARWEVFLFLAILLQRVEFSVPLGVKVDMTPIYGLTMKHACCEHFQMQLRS

COc1ccc(-c2coc3cc(F)ccc3c2=O)cc1OC :: > 4.00

Now for another entry.
Just so you know, measured pIC50 for "COc1ccc(-c2coc3ccc(F)cc3c2=O)cc1OC" came out at > 4.00
